# targetOrTestSystem: RSV F protein of recombinant mKate-RSV, subtype A (strain A2) (Respiratory syncytial virus subtype A …, UniProt P03420 26-574)
# assayComment: cell-based or functional assay
assayEndpoint: Neut IC50 subtype A

// query Neut IC50 subtype A lookup needed for ADI-14502 (antibody, V domains shown) VH: QVQLVQSGAEVKKPGSSVKVSCKASGDTFSMYAISWVRQAPGQGLEWMGGVLPMLGTSNYAQQFRGRVTITADGSTSTAYMEMSNLRFEDTAVYYCARVAGLGNSYGRYFDVWGQGTLVTVSS VL: DIRMTQSPSSVSASIGDRVTITCRASQDISTSLAWYQQRPGKAPNLLIYAASTLHSGVPSRFRGSESGPDFTLTISSLQPEDVGTYYCQQAKSFPYTFGQGTKLEIK , thanks.
// result > 10 µg/mL
